test system: H1 or H9 human embryonic stem cells; assay: Activin A bioassay: differentiation of human embryonic stem cells to definitive endoderm, cell number and SOX17 intensity by high content analysis (96-well, four days); assay type: cell-based; settings: supernatant concentration 1x, assay dilution 1:20; control = R&D Sys Activin A 100 ng/ml on same plate

molecule	Sox 17 Intensity % of control / %
ACTN52: activin A variant peptide, SEQ ID 53 (protein) GLECDGKVNICCKKQLFGKTKDIGWNDWIIAPSGYHGGSCTGECPSHIAGTSGSSLSFHSTVINHYRMRGHSPNANLKSCCSPTKLRPMSMLYYDDGQNIIKKDIQGMKVEECGCT	1.3
ACTN21: activin A variant peptide, SEQ ID 22 (protein) GLECDGKVNYCCKKQWFVSFKDIGWNDWIIAPSGYHANKCSGKCPSHIAGTSGSSLSFHSTVINHYRMRGHSPFANMGSCCIPTKLRPMSMLYYDDGQNIIKKDIQNMIVEECGCS	0.0
ACTN59: activin A variant peptide, SEQ ID 60 (protein) GLECDGKVNICCKKQLFGQTKDIGWNDWIIAPSGYHGGGCTGECPSHIAGTSGSSLSFHSTVINHYRMRGHSPNANLKSCCAPTKLRPMSMLYYDDGQNIIKKDIQGMKVEECGCV	3.7
ACTN55: activin A variant peptide, SEQ ID 56 (protein) GLECDGKVNICCKKQSFGQTKDIGWNDWIIAPSGYHGGGCTGECPSHIAGTSGSSLSFHSTVINHYRMRGHSPWANLKSCCSPTKLRPMSMLYYDDGQNIIKKDIQGMVVEECGCT	1.2
